B1: library; numbered along this chain (parent)
chain: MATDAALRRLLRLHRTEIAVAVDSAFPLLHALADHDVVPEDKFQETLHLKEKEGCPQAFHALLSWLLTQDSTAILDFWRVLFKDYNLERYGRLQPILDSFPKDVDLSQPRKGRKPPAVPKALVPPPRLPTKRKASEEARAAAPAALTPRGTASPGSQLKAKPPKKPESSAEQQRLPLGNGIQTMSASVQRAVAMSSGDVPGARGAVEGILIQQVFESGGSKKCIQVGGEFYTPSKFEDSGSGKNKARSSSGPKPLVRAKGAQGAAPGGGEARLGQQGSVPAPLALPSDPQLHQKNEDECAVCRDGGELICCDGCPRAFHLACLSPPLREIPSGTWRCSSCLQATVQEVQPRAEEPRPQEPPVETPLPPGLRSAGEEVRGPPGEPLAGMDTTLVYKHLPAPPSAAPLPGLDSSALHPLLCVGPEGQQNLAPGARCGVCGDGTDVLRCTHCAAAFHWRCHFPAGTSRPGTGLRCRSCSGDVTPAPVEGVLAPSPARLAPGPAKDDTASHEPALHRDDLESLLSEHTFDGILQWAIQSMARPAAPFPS

Variants of: B1
Test: AIRE transcriptional activation functional score (insulin promoter-GFP; nonsense median 0, synonymous median 1) (normalised score); higher = higher AIRE activity (more reporter activation)
Conditions: with insulin promoter-GFP reporter in HEK293
Reported values of AIRE transcriptional activation functional score for individual entries
Just the number, please.

Worked cases, AIRE transcriptional activation functional score given:
variantIdentifier | quantitativeReadout
P384A | 0.99
C310D | 0.991
A321S | 1.01
G527N | 0.999
S107I | 1.02

Let us move to another entry and its AIRE transcriptional activation functional score.
Q) Check the records and state AIRE transcriptional activation functional score for "N179F"
A) 0.503

Value source: the supplement of paper PMC12667976
